- System: breast cancer cell line MX-1
- Protocol notes: MX-1 cell line proliferation assay, Method B
- Format: cell-based
- Run conditions: Homo sapiens, MX1; MX-1 cells, 384-well, 72 hours, Cell Titer Glo; read-out: Cellular proliferation: EC50 Method B
Experimental readout: pEC50
# pEC50: negative log10 of molar concentration; output just the value

[
  {
    "Compound": "CCNC(=O)c1cc2c(-c3ccc(C(=O)N(CCN(CC)CC)c4ccccc4OC)cc3Oc3c(C)cccc3C)cn(C)c(=O)c2[nH]1 [Example 178]",
    "Test system": "breast cancer cell line MX-1",
    "pEC50": 5.00
  },
  {
    "Compound": "CCNC(=O)c1cc2c(-c3ccc(C(=O)N(Cc4ccccc4)Cc4ccc(Cl)cc4)cc3Oc3c(C)cccc3C)cn(C)c(=O)c2[nH]1 [Example 173]",
    "Test system": "breast cancer cell line MX-1",
    "pEC50": 5.28
  },
  {
    "Compound": "CCNC(=O)c1cc2c(-c3ccc(C(=O)N(CC#N)C(C)Cc4ccccc4)cc3Oc3c(C)cccc3C)cn(C)c(=O)c2[nH]1 (stereo not shown) [Example 166]",
    "Test system": "breast cancer cell line MX-1",
    "pEC50": 5.52
  },
  {
    "Compound": "CCNC(=O)c1cc2c(-c3ccc(C(=O)N(CCN(CC)CC)c4ccccc4)cc3Oc3c(C)cccc3C)cn(C)c(=O)c2[nH]1 [Example 182]",
    "Test system": "breast cancer cell line MX-1",
    "pEC50": 5.67
  }
]

stdin: Please report the measured pEC50 for CCNC(=O)c1cc2c(-c3ccc(C(=O)N(CCN(C)C)c4ccccn4)cc3Oc3c(C)cccc3C)cn(C)c(=O)c2[nH]1 [Example 181]
stdout: 5.40

stdin: // Input: CCNC(=O)c1cc2c(-c3ccc(C(=O)N(CCCN(C)C)C4CCCCC4)cc3Oc3c(C)cccc3C)cn(C)c(=O)c2[nH]1 [Example 172] . Output its pEC50 only.
stdout: 5.60

stdin: Look up and report measured pEC50 for this entry: CCNC(=O)c1cc2c(-c3ccc(C(=O)N(CC#N)CC(C)c4ccccc4)cc3Oc3c(C)cccc3C)cn(C)c(=O)c2[nH]1 (stereo not shown) [Example 167]
stdout: 5.69

stdin: Give the measured pEC50 for CCNC(=O)c1cc2c(-c3ccc(C(=O)N(CCN(CC)CC)c4ccccc4C)cc3Oc3c(C)cccc3C)cn(C)c(=O)c2[nH]1 [Example 170]
stdout: 5.66

stdin: Report measured pEC50; entry is CCNC(=O)c1cc2c(-c3ccc(C(=O)N(CCN(C)C)c4ccnc(F)c4)cc3Oc3c(C)cccc3C)cn(C)c(=O)c2[nH]1 [Example 185]
stdout: 5.57

stdin: State, in one line, measured pEC50 of CCNC(=O)c1cc2c(-c3ccc(C(=O)N(CCCC(=O)OCC)c4ccccc4)cc3Oc3c(C)cccc3C)cn(C)c(=O)c2[nH]1 [Example 180]
stdout: 5.22

stdin: # return recorded pEC50 for input CN1CCN(Cc2cc3c(-c4cc(S(C)(=O)=O)ccc4Oc4ccc(F)cc4F)cn(C)c(=O)c3[nH]2)C(c2ccccc2)C1 (stereo not shown) [Example 188]
stdout: 7.11

stdin: Give pEC50 for the following compound: CCNC(=O)c1cc2c(-c3ccc(C(=O)N(CCCN4CCCC4)C(C)Cc4ccccc4)cc3Oc3c(C)cccc3C)cn(C)c(=O)c2[nH]1 (stereo not shown) [Example 165]
stdout: 5.84

Cited source for all entries: patent US9957263B2
